Reported values of cAMP EC50 for individual entries
Molecular target: T1, rat GLP-1 receptor (rat, UniProt P32301 22-463)
T1 sequence (looked up): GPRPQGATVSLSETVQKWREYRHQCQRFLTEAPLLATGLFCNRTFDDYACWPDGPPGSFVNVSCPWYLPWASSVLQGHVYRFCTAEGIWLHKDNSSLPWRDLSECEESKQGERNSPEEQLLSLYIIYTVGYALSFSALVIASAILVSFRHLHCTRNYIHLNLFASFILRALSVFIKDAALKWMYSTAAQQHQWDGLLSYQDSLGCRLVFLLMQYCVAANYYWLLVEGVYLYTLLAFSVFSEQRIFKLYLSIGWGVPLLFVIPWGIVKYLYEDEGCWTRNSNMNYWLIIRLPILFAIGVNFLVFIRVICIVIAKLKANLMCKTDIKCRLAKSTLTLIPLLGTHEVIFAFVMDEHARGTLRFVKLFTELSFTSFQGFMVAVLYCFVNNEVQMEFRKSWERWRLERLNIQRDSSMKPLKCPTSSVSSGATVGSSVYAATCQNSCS
Experiment: cell-based or functional assay
EXPERIMENTAL ENDPOINT: cAMP EC50 (nM)

{"columns": ["BINDER", "UNITS", "VALUE"],
 "data": [
  ["IP372 (Fc fusion) YSEGTFTSDYSIYLDEEAVRLFIEWLLAGGGGGGGSGGGGSGGGGSGGGGSACPPC", "nM", 2.9],
  ["IP244 (Fc fusion) YSEGTFTSDVSKLLEEEAVRLFIEWLLAGAPPGGSGSTASSGSGSATGGGGAATHTCPPCPAPEF", "nM", 0.066],
  ["IP258 (Fc fusion) YSEGTFTSDYSKLLDEEAVRLFIEWLVKGPGGGGGSGGGGSGGGGSGGGGSATHTCPPCPAPEF", "nM", 0.12],
  ["IP088 (Fc fusion) YSEGTFTSDYSKLLEEEAVRLFIEWLVKGPAAAGGSGSTASSGSGSATGGGGAATHTCPPCPAPEF", "nM", 0.033],
  ["IP147 (Fc fusion) YSEGTFTSDYSKLLEEEAVRLFIEWLVKGPAPPGGSGSTASSGSGSATGGGGAATHTCPPCPAPEF", "nM", 1.1],
  ["IP085 (Fc fusion) YSEGTFTSDYSKLLEEEAVRLFIEWLLAGAPPGGSGSTASSGSGSATGGGGAATHTCPPCPAPEF", "nM", 0.1],
  ["IP279 (Fc fusion) YSEGTFTSDYSKLLEEEAVRLFIEWLVKGPSSGAPPPSGGGGGSGGGGSGGGGSGGGGSATHTCPPC", "nM", 0.024],
  ["IP358 (Fc fusion) YSEGTFTSDFSKLLEEEAVRLFIEWLLAGGGGGGSGGGGSGGGGSGGGGSATHTCPPC", "nM", 0.15],
  ["IP201 (Fc fusion) YSEGTFTSDYSKLLEEEAVRLFIEWLLAGPSSGAPPPSAAAGGSGSTASSGSGSATGGGGAATHTCPPCPAPEF", "nM", 0.098],
  ["IP278 (Fc fusion) YSEGTFTSDYSKLLEEEAVRLFIEWLVKGPPSSGAPPPSGGGGGSGGGGSGGGGSGGGGSATHTCPPC", "nM", 0.026],
  ["IP243 (Fc fusion) YSEGTFTSDYSKLLEEEAQRLFIEWLVKGPAAAGGSGSTASSGSGSATGGGGAATHTCPPCPAPEF", "nM", 0.024]
]}
